Source: PubChem BioAssay AID1566

- assay_details: inhibition of NOD2-driven NF-kB reporter – cell-based, luminescence, uHTS, HEK293 (AID 1566)
- condition_summary: HEK293 NOD2/NF-kB luciferase reporter, at 4 µM, stronger effect = higher value
Out of some 290,000 compounds screened, about 1,800 (0.62%) were called active. The full list was thinned out, with actives kept by preference.
measured_metric: inhibition (%)

>>> reported_measurement("O=C1C=C(c2ccccc2)C[C@H](c2cccs2)[C@H]1n1cnc([N+](=O)[O-])c1")
3.4
>>> reported_measurement("Cc1ccc(C(=O)Nc2cnc3ccccc3c2)cc1")
54.2
>>> reported_measurement("CC(=O)c1c(O)ccc2c(-c3ccccc3)cc(=O)oc12")
13
>>> reported_measurement("Cc1ccc(-c2cc(C(F)F)nc(N3CCOCC3)n2)cc1")
15.5
>>> reported_measurement("O=C(O)c1cc(N/N=C/c2ccc3c(c2)OCO3)ccc1Cl")
-118
>>> reported_measurement("Cc1ccc(C(=O)N/C(=C\\c2ccc(-c3ccccc3[N+](=O)[O-])o2)C(=O)NCCN(C)C)cc1")
50.5
>>> reported_measurement("Cc1ccc(C(=O)N/C(=C\\c2ccc(-c3ccccc3[N+](=O)[O-])o2)C(=O)NCCCN(C)C)cc1")
49.4
>>> reported_measurement("CCCCCCn1ccc(=N)cc1")
40.3
>>> reported_measurement("CCn1cc([N+](=O)[O-])c(C(=O)Nc2nc(-c3ccc(C)cc3)c(C)s2)n1")
3
>>> reported_measurement("O=C(CCSCc1cccc(Cl)c1)NCCC1=CCCCC1")
12.1
>>> reported_measurement("CCCCCn1ccc(=N)cc1")
31.1
>>> reported_measurement("CN(C)Cc1c(O)ccc2c(-c3ccccc3)cc(=O)oc12")
1.4
>>> reported_measurement("COc1ccccc1CNC(=O)c1cn(C)c2ccc(S(=O)(=O)N3CCCCC3)cc2c1=O")
-7.1
>>> reported_measurement("Cc1ccc(NC(=O)Nc2cnc3ccccc3c2)cc1")
-175
>>> reported_measurement("CCn1cc([N+](=O)[O-])c(C(=O)Nc2nc(-c3ccc(C)c(C)c3)c(C)s2)n1")
13
>>> reported_measurement("N/C(=N\\c1nc(CSc2ccc(Cl)cc2)cc(=O)[nH]1)Nc1ccccc1C(F)(F)F")
2.8
>>> reported_measurement("O=C(N/N=C/c1ccc2c(c1)OCO2)c1ccc2c(c1)OCO2")
-137
>>> reported_measurement("Cc1ccc(S(=O)(=O)N(CC(=O)NCCSCc2ccco2)c2ccc(F)cc2)cc1")
-2.2
>>> reported_measurement("O=C(O)c1cccc(NC(=O)c2cccc(S(=O)(=O)N3CCc4ccccc43)c2)c1")
-26.3
>>> reported_measurement("CC(=O)NS(=O)(=O)c1ccc(NS(=O)(=O)c2ccc3ccccc3c2)cc1")
0.7
>>> reported_measurement("CCN(CC)S(=O)(=O)c1ccc2nnn(O)c2c1")
-3.6
>>> reported_measurement("CCCCCCCC(=O)NC(Nc1ccc(S(N)(=O)=O)cc1)C(Cl)(Cl)Cl (configuration not stated)")
22.9
